Assay: yeast display, Sf9 membrane polyspecificity reagent, FACS + sequencing; frameworks hold sequencing errors
Property Name: polyreactivity (PSR sort gate)

Before answering, review these 10 worked examples.
• QVQLVESGGGLVQAGGSLRLSCAASGFTFIGYAMGWYRQAPGKERELVAAITWRGGRTYYADSVKGRFTISRDNAKNTVYLQMNSLKPEDTAVYYCAADGYTVVNSYYWGQGTQVTVSS = high polyreactivity
• QVQLGESGGGLVQAGGSLRLSCAAAGFIFRPYAMGWYRQAPGKERELVAVISNSGGSSNYADSVKGRFSISRENAKNTVYLQMNSLKPEDTAVDYCNALVYVPHWWTYYDWGQGTQVTVSS = high polyreactivity
• QVQLVESGGGLVQAGGSLRLSCDASGFTFIRNGMGWYRQAPGKERELVAAINSRGGNTYYADSVKGRFTISRDNAKNTVYLQMNSLKPEDTAVYYCNRVVQRWSTQYGYWGQGTQVTVSS = high polyreactivity
• QVQLVESGGGLVQAGGRLRLSCTASGIIFGTYAMGWYRQAPGKERELVAAISSSGVSTYYADSVKGRFTISRDNAKNTVYLQMNSLKPEDTAVYYCAAPLHYGYYYWGQGTQVTVSS = high polyreactivity
• QVQLVESGGGLVQAGGSLRLSCAASGLTFAYYAMGWYIQAPGKERELVAAITWNGGSTYYADSVKGRFTISRDNSKNTVYLQMNSLKPEDTAVYYCAASWGYCYSGRFDYWGQGTEVTVSS = high polyreactivity
• QVQLVESGGGLVQAGGSLRLSCAASGRTFRLYALGWYRQAPGKERELVAAITRGGRTNYADSVTGRFTISRDNAKNTVYLQMNSLKPEDTAVYYCAARYVERHTDYYYWGQGTQVTVSS = low polyreactivity
• QVQLVESGGGLVQAGGSLRLSCAASGSIFGPNPMGWYRQAPGKERELVAAISWTGGRTYYADSVKGRFTISRDNAKNTVYLQMNSLKPEDTAVYYCAAARYLSGGYEKYDYWGQGTQVTVST = low polyreactivity
• QVQLVESGGGLVQAGGSLRLSCAASGRTFYFYAMGWYRQAPGKERELVAAIDFSGDSTYYADSVKGRFTISRDNAKNTVYLQMNSLKPEDTAVYYCAAEIYIGEQPYDYWGQGTQVTVSS = low polyreactivity
• HVQLVESGGGLVQAGGSLRLSCAASGRIFPSNTMGWYRQAPGKERELVAAITRGDRTNYADSVKGRFTISRDNAKNTVYLQMNSLKPVDTAVYYCNARWGLPFGSGYYYWGQGTQVTVSS = low polyreactivity
• QVQLVESGGGLVQAGGSLRLSCAASGFIFAYYAMGWYRQAPGKERELVAAITIDGSTNYADSVKGRFTISRDNAKNTVYVQMNSLKPEDSAVYYCAAAEHPPVWYGYWGQGTQVTVSS = low polyreactivity

Indicate the recorded polyreactivity (PSR sort gate) value for this sequence: QVQLVESGGGLVQAGGSLRLSCAASGGNFGYYAMGWYRQAPGKEREFVAAITLSGGRTYYADSVKGRFTISRDNAKNTVYLQMNSLKPEDTAVYYCAAKGTRRGKERNYWGQGTQVTVSS high polyreactivity

Indicate the recorded polyreactivity (PSR sort gate) value for this sequence: QVQLVESGGGVVQAGGSLRLSCAASGSIFRRNAMGWYRQAPGKERELVAAISWTTGSTYYADSVKGRFTISRDNAKNTVYLLMNSLKAEDTSVYYCAAVIRSRYSYYEYDFWGQGTKVTVSS high polyreactivity

Indicate the recorded polyreactivity (PSR sort gate) value for this sequence: QVQLVESGGGLVQAGGSLRLSCAASGSTFVWYAMGWYRQAPGKEREFVAAITNSGGSTYYADSVKGRFTISRDNAKNTVYLQMNSLKPEDTAVDYCAKDRYYYRGAYHEYNYWGQGTQVTVSS low polyreactivity

Indicate the recorded polyreactivity (PSR sort gate) value for this sequence: QVQLVESGGGLVQAGGSLRLRCAASGSTFGKNAMGWYRQAPGKERELVAAISKNGGSTYYADSVKGRFTISRDNAKNTVYILMNSLKPEDTAVYYCNTRRKNFVKSSQVEYWGQGTQVTVSS high polyreactivity

Indicate the recorded polyreactivity (PSR sort gate) value for this sequence: QGQLVESGGGLVQAGGSLRLSCAASGRTFGINAMGWYRQAPGKERELVAVISFGDGGTYYADSVKGRFTISRDNAKNTVYLQMNSLKPEDTAVYYCATDYQSTSVWGGHFVINPYDYWGQGTQVTVSS low polyreactivity
